Numbers sourced from PubChem BioAssay (Tox21).

# METHOD SUMMARY: qHTS assay to identify small molecule HDAC inhibitors (AID 1259364);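 also: wild-type HCT-116 cells with endogenous class I/II HDAC activity; top concentration of the series differs between compounds; nearly all actives have a fitted effect of over 45% in size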
# MEASUREMENT CONTEXT: HCT-116 HDAC-Glo I/II luminescence, 2 h; series mostly up to 92.4 µM
Inconclusive results are not listed. Active and inactive are the calls of the source. Calls follow the shape of the dose curve; as a rule, active = well fitted inhibition curve with a large enough effect in the repeat runs; inconclusive = weak or mixed curves; inactive = flat fitted curve, though single readings scatter.
Choose one outcome from this list and give only that: YES = active, NO = inactive

The following compounds have reported results that may help.
>  <COMPOUND>
ClC(Cl)Cl

>  <CLASS ASSIGNMENT>
NO

$$$$
>  <COMPOUND>
CN(CCCN1c2ccccc2CCc2ccccc21)CC(=O)c1ccc(Cl)cc1

>  <CLASS ASSIGNMENT>
NO

$$$$
>  <COMPOUND>
CCC1(C)NC(=O)NC1=O (stereo not given)

>  <CLASS ASSIGNMENT>
NO

$$$$
>  <COMPOUND>
Oc1ccccc1F

>  <CLASS ASSIGNMENT>
NO

$$$$
>  <COMPOUND>
Cc1ccc([N+](=O)[O-])c(N)c1

>  <CLASS ASSIGNMENT>
NO

$$$$

# input Field: outcome | Entry: "Cc1nc(N)nc(N)c1-c1ccc(Cl)c(Cl)c1"
# output NO

# input Field: outcome | Entry: "C=C(C)C(=O)OCCOP(=O)(O)O"
# output NO

# input Field: outcome | Entry: "C=CCCC=C"
# output NO

* * *

# METHOD SUMMARY: A CellTox Green Cytotoxicity Assay to monitor cytotoxicity in HepG2 cells - 24 hour (AID 1224878); also: nearly all actives have a fitted effect of over 45% in size
# MEASUREMENT CONTEXT: CellTox Green fluorescence; series mostly up to 76.8 µM
Results filed as inconclusive are left out. Calls of active or inactive are those of the source. The call rests on the fitted dose curve; in most records, active means well fitted activation curve with a large enough effect in the repeat runs; inconclusive means weak or mixed curves; inactive means flat fitted curve, though single readings scatter.
Choose one outcome from this list and give only that: label 1 (active), label 0 (inactive)

# input Field: outcome | Entry: "O=C(O)C(=O)Cc1c[nH]c2ccccc12"
# output label 0

# input Field: outcome | Entry: "CO[C@@]1(NC(=O)CSCC#N)C(=O)N2C(C(=O)O)=C(CSc3nnnn3C)CS[C@@H]21"
# output label 0

# input Field: outcome | Entry: "NC/C=C/C(=O)O"
# output label 0

# input Field: outcome | Entry: "O=C1CCCc2ccccc21"
# output label 0

# input Field: outcome | Entry: "O=C1CCC(C2CCCCC2)CC1"
# output label 1

# input Field: outcome | Entry: "CO[Si](C)(C)OC"
# output label 0

# input Field: outcome | Entry: "CN1CCN(c2c(F)cc3c(=O)c(C(=O)O)cn4c3c2SCC4)CC1"
# output label 0

# input Field: outcome | Entry: "CN(CCCN1c2ccccc2CCc2ccccc21)CC(=O)c1ccc(Cl)cc1"
# output label 0

# input Field: outcome | Entry: CN1[C@@H]2CC[C@H]1CC(OC(=O)c1c[nH]c3ccccc13)C2 (some centres undefined)
# output label 0

# input Field: outcome | Entry: "COC(=O)/C=C(/C)N"
# output label 0

# input Field: outcome | Entry: "OCCN(CCO)c1ccccc1"
# output label 0

# input Field: outcome | Entry: "CCCCc1ccc2nc(NC(=O)OC)[nH]c2c1"
# output label 0

# input Field: outcome | Entry: "C=CCCC=C"
# output label 0

# input Field: outcome | Entry: "CC(C)NC[C@@H](O)COc1cccc2ccccc12"
# output label 0
